B1: LOXL2 (parent)
chain: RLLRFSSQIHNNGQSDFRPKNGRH

# Variants of: B1
# run description: protein stability index of a GFP-peptide fusion (GPS, HEK-293T) (PSI 1-6); higher = more stable;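 note: lentivirally expressed fusions sorted by FACS into six bins by GFP to DsRed ratio, PSI derived from sequencing read proportions per bin multiplied by bin number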
# condition summary: c terminus: a fixed tail appended
observable: protein stability index

>>> measured_result("H24G")
3.2
>>> measured_result("F17M")
3.06
>>> measured_result("I9H")
3.26
>>> measured_result("N21T")
2.37
>>> measured_result("N11D")
3.29
>>> measured_result("S7G")
2.46
>>> measured_result("Q8A")
2.94
>>> measured_result("F5D")
3.84
>>> measured_result("R1A")
2.41
>>> measured_result("R4G")
3.51
>>> measured_result("L2C")
3.82
>>> measured_result("G22C")
2.4
>>> measured_result("S7H")
2.44
>>> measured_result("Q14N")
2.79
>>> measured_result("N12E")
2.57
>>> measured_result("G22I")
2.19
>>> measured_result("Q14I")
2.11
>>> measured_result("H24P")
2.95
>>> measured_result("Q14L")
2.19
>>> measured_result("R18Q")
2.99
>>> measured_result("Q8W")
1.77
>>> measured_result("Q8C")
2.21
>>> measured_result("F5E")
3.94
>>> measured_result("S15K")
2.42
>>> measured_result("D16G")
2.12
>>> measured_result("Q14R")
2.5
>>> measured_result("R18T")
3.29
>>> measured_result("N11I")
2.39
>>> measured_result("H10V")
2.68
>>> measured_result("S6V")
3.85
>>> measured_result("S7F")
1.79
>>> measured_result("R1P")
4.01
>>> measured_result("H24V")
2.52
>>> measured_result("S7W")
2.06
>>> measured_result("N12S")
3.25
>>> measured_result("I9S")
3.04
>>> measured_result("S7P")
4.2
>>> measured_result("N12Q")
2.57
>>> measured_result("P19E")
3.29
>>> measured_result("K20L")
1.89
>>> measured_result("D16H")
2.35
>>> measured_result("H24E")
3.12
>>> measured_result("R4I")
2.48
>>> measured_result("S6H")
2.37
>>> measured_result("S6P")
3.41
>>> measured_result("H10R")
2.36
